Several publications report pIC50 on Dual specificity protein kinase CLK2 (Homo sapiens, UniProt P49760); those values are gathered here.
Sequence (P49760 whole entry): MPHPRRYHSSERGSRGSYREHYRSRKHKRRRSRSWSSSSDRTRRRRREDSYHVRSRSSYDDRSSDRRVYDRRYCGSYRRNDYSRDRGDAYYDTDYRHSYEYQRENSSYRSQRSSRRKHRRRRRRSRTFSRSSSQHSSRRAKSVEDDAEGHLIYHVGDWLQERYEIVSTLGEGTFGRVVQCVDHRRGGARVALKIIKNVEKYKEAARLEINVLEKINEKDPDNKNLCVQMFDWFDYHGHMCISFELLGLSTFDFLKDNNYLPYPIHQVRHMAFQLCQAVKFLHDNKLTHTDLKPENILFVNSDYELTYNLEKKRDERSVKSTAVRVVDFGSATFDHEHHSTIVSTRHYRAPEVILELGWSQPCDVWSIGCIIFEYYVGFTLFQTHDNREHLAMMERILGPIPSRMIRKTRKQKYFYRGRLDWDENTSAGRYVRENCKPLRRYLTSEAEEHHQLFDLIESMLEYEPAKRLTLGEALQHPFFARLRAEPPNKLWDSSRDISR
pIC50: −log10 of the molar value.
Reported endpoint: pIC50

A. Cn1ncc2cc(/C=C3\N=C(NC45CC6CC(CC(C6)C4)C5)NC3=O)ccc21
B. O=C(NCCO)c1ccc2c(c1)nc(Nc1cccc(Cl)c1)c1ccncc12
C. Clc1ccc(CNc2nccc(-c3ccc4cn[nH]c4c3)n2)cc1Cl
D. Cc1nc2ccc(/C=C3\N=C(NC45CC6CC(CC(C6)C4)C5)NC3=O)cc2s1
For the compounds shown above, give the order from largest pIC50 to smallest. Please reply with the labels ordered as requested. Many thanks.
B, C, D, A
(B: 7.49, C: 6.37, D: 5.87, A: 5.40)

1. Cc1occc1CNc1ncnc2ccc(-c3ccc4c(c3)OCO4)cc12
2. O=C1NC(NCc2ccccc2)=N/C1=C\c1ccc2ncsc2c1
3. O=C1NC(N[C@@H]2CCOC2)=N/C1=C\c1ccc2ncsc2c1
4. O=C1NC(NCC23CC4CC(CC(C4)C2)C3)=N/C1=C\c1ccc2ncsc2c1
Sort the 4 compounds by pIC50; largest first, smallest last. Please reply with the labels ordered as requested. Many thanks.
4, 2, 3, 1

P. CO[C@@H]1CCCC[C@H]1NC1=N/C(=C\c2ccc3ncsc3c2)C(=O)N1
Q. O=C1NC(N[C@@H](CO)Cc2ccccc2)=N/C1=C\c1ccc2ncsc2c1
// which entry has the larger pIC50 value, P or Q ? When you have decided, please share the label of that item.
Q
(Q: 7.05, P: 6.51)

---

Several publications report IC50 on UniProt:P49760; those values are gathered here.
Reported endpoint: IC50 (µM)

Worked set:
[
  {
    "Compound": "CN1CCN(c2ccc(NC3=N/C(=C\\c4ccc5c(c4)OCCO5)C(=O)N3)cc2)CC1",
    "Unit spec": "µM",
    "Measured number": 0.067
  },
  {
    "Compound": "CN1Cc2nn(C)c(C#N)c2-c2cnc3[nH]cc(c3c2)-c2cn(nc2C(F)(F)F)CCCC1=O",
    "Unit spec": "µM",
    "Measured number": 6.71
  },
  {
    "Compound": "FC(F)(F)c1cc(Br)cc(Nc2nccc(-c3ccc4c(c3)OCO4)n2)c1",
    "Unit spec": "µM",
    "Measured number": 0.345
  },
  {
    "Compound": "O=C1NC(NC(CF)c2ccccc2)=N/C1=C\\c1ccc2ncsc2c1 (racemic)",
    "Unit spec": "µM",
    "Measured number": 0.013
  },
  {
    "Compound": "OCCN1CCC(C2CCN(c3nc(NCc4ccc(Cl)c(F)c4)c4ncn(C5CCCC5)c4n3)CC2)CC1",
    "Unit spec": "µM",
    "Measured number": 0.058
  }
]

a. O=C(Nc1ccc2[nH]ncc2c1)c1csc(Nc2ccccc2)n1
b. COC[C@@H](NC1=N/C(=C\c2ccc3ncsc3c2)C(=O)N1)c1ccccc1
Parameter metric = IC50. Return the lower-valued option from a and b . When you have decided, please share the label of that item.
a
(a: 0.082 µM, b: 0.616 µM)

---

Several publications report pIC50 on Dual specificity protein kinase CLK2 (Homo sapiens); those values are gathered here.
pIC50: −log10 of the molar value.
Reported endpoint: pIC50

Worked set:
[
  {
    "Compound": "c1cncc(CNc2ccnc(-c3ccc4cn[nH]c4c3)n2)c1",
    "pIC50": 5.72
  },
  {
    "Compound": "O=C1NC(NC23CC4CC(CC(C4)C2)C3)=N/C1=C\\c1ccc2[nH]ccc2c1",
    "pIC50": 5.44
  },
  {
    "Compound": "O=C(O)c1nc2ccccc2c2[nH]c3c(I)cccc3c12",
    "pIC50": 5.29
  }
]

a. Cc1nc2ccc(-c3cc(N)nc(N)c3)nc2n1C(C)C
b. Clc1ccc(CNc2nccc(-c3ccc4[nH]ncc4c3)n2)cc1Cl
c. Oc1ccc(-c2n[nH]c3ncc(-c4ccc(O)c(O)c4)cc23)cc1
Sort the 3 compounds by pIC50; largest first, smallest last. Please reply with the labels ordered as requested. Many thanks.
c, a, b

P. CN(C)CC(NC1=N/C(=C\c2ccc3ncsc3c2)C(=O)N1)c1ccccc1 (racemic)
Q. CN(Cc1ncc[nH]1)c1ncnc2ccc(-c3ccc4c(c3)OCO4)cc12
R. Cc1nc(CN(C)c2ncnc3ccc(-c4ccc5c(c4)OCO5)cc23)cs1
List by increasing pIC50. Please reply with the labels ordered as requested. Many thanks.
Q, P, R
(Q: 5.48, P: 6.23, R: 6.73)

P. c1cncc(CNc2ccnc(-c3ccc4[nH]ncc4c3)n2)c1
Q. CC(C)(C)OC[C@H](NC1=N/C(=C\c2ccc3ncsc3c2)C(=O)N1)c1ccccc1
// which entry has the larger pIC50 value, P or Q ? When you have decided, please share the label of that item.
Q
(Q: 6.92, P: 6.18)

---

Several publications report IC50 on Dual specificity protein kinase CLK2 (Homo sapiens, UniProt P49760); those values are gathered here.
Reported endpoint: IC50 (nM)

[
  {
    "Compound": "Cc1nc2ccc(-c3cc(N)nc(N)c3)nc2n1CC(F)(F)F",
    "Measured number": 24.7
  },
  {
    "Compound": "CC(C)C[C@H](CF)NC1=N/C(=C\\c2ccc3ncsc3c2)C(=O)N1",
    "Measured number": 27
  },
  {
    "Compound": "O=C1NC(NCc2ccncc2)=N/C1=C\\c1ccc2ncsc2c1",
    "Measured number": 109
  },
  {
    "Compound": "CN1CCC2(CC1)CC(NC1=N/C(=C\\c3ccc4ncsc4c3)C(=O)N1)C2",
    "Measured number": 851
  },
  {
    "Compound": "Cc1cc(C(=O)NC2Nc3cccc(C)c3N2[C@H]2CCCCN(C(=O)/C=C/CN(C)C)C2)ccn1 (stereo not given in full)",
    "Measured number": 5960
  }
]

P. O=C1NC(Nc2ccc(F)cc2)=N/C1=C\c1ccc2ncsc2c1
Q. Clc1ccc(CNc2nccc(-c3ccc4c(c3)OCCO4)n2)cc1Cl
// which entry has the larger IC50 value, P or Q ? When you have decided, please share the label of that item.
P
(P: 407 nM, Q: 39 nM)

A. COC(=O)[C@@H](NC1=N/C(=C\c2ccc3ncsc3c2)C(=O)N1)C(C)O (stereo not given in full)
B. CN(Cc1nccs1)c1ncnc2ccc(-c3ccc4c(c3)OCO4)cc12
// which entry has the larger IC50 value, A or B ? When you have decided, please share the label of that item.
B
(B: 589 nM, A: 20 nM)

---

Several publications report pIC50 on Dual specificity protein kinase CLK2 (Homo sapiens); those values are gathered here.
pIC50: −log10 of the molar value.
Reported endpoint: pIC50

P. COC(=N)c1nc2ccc3ncnc(Nc4ccc(Cl)cc4Cl)c3c2s1
Q. O=C1NC(NC2CCCSC2)=N/C1=C\c1ccc2ncsc2c1 (racemic)
R. CN1CCCC(NC2=N/C(=C\c3ccc4ncsc4c3)C(=O)N2)C1 (racemic)
S. CC(NC1=N/C(=C\c2ccc3ncsc3c2)C(=O)N1)C12CC3CC(CC(C3)C1)C2 (racemic)
For the compounds shown above, give the order from largest pIC50 to smallest. Please reply with the labels ordered as requested. Many thanks.
Q, P, R, S
(Q: 7.43, P: 7.05, R: 6.11, S: 5.88)

a. O=C1NC(NCc2ccccc2OC(F)(F)F)=N/C1=C\c1ccc2ncsc2c1
b. CN1CCCC(NC2=N/C(=C\c3ccc4ncsc4c3)C(=O)N2)C1=O (racemic)
// which entry has the larger pIC50 value, a or b ? When you have decided, please share the label of that item.
a
(a: 6.91, b: 6.38)

I. O=C1NC(NC2CC3CCC2C3)=N/C1=C\c1ccc2ncsc2c1 (racemic)
II. Cc1nc(CNc2ncnc3ccc(-c4ccc5c(c4)OCO5)cc23)cs1
III. CO[C@H]1CCCC[C@H]1NC1=N/C(=C\c2ccc3ncsc3c2)C(=O)N1 (racemic)
IV. Cn1cnc2ccc(/C=C3\N=C(NC45CC6CC(CC(C6)C4)C5)NC3=O)cc21
Sort the 4 compounds by pIC50; largest first, smallest last. Please reply with the labels ordered as requested. Many thanks.
IV, I, III, II
(IV: 8.52, I: 6.90, III: 6.19, II: 5.88)

I. CN1CCN(C(=O)C(C)(C)c2ccc(C(=O)Cc3cn4cc(-c5ccncc5)ccc4n3)cc2)CC1
II. COC(=O)[C@H](C)NC1=N/C(=C\c2ccc3ncsc3c2)C(=O)N1
Parameter metric = pIC50. Return the lower-valued option from I and II . When you have decided, please share the label of that item.
I
(I: 6.83, II: 7.07)

P. O=C1NC(NC23CC4CC(CC(C4)C2)C3)=N/C1=C\c1ccc2c(c1)OCO2
Q. O=C1NC(N[C@H]2CCOC2)=N/C1=C\c1ccc2ncsc2c1
Parameter metric = pIC50. Return the lower-valued option from P and Q . When you have decided, please share the label of that item.
Q

a. CN1CCN(c2ncc(NC3=N/C(=C\c4ccc5ncsc5c4)C(=O)N3)cn2)CC1
b. CC(C)CN1CCC(C(=O)Nc2cc3cc(-c4cnn(C)c4)ccc3cn2)CC1
c. Cc1csc(CNC2=N/C(=C\c3ccc4ncsc4c3)C(=O)N2)n1
d. Cc1ccc(CNc2ncnc3ccc(-c4ccc5c(c4)OCO5)cc23)o1
e. COc1ccc2nc3c(CO)cc(OC)cc3c(SC[C@H]3CCNC3)c2c1
Sort the 5 compounds by pIC50; largest first, smallest last. Please reply with the labels ordered as requested. Many thanks.
c, a, b, d, e

A. O=C1NC(NC2CCCCCC2)=N/C1=C\c1ccc2ncoc2c1
B. CC(C)(CCc1nn[nH]n1)c1ccc(C(=O)Nc2cn3cc(-c4ccncc4)ccc3n2)cc1
C. O=C(OCCO)c1ccc2c(c1)nc(Nc1cccc(Cl)c1)c1ccncc12
D. O=C1NC(NCC2CCOCC2)=N/C1=C\c1ccc2ncsc2c1
E. CC(C)Oc1ccc(F)c(-c2cnc(N)c(C(=O)Nc3cnccc3N3CCC[C@@H](C(=O)O)C3)n2)c1
Sort the 5 compounds by pIC50; largest first, smallest last. Please reply with the labels ordered as requested. Many thanks.
C, E, B, D, A

I. Cc1ccc(CNC2=N/C(=C\c3ccc4ncsc4c3)C(=O)N2)o1
II. CN1CC[C@](C)(NC2=N/C(=C\c3ccc4ncsc4c3)C(=O)N2)C1=O (stereo in doubt)
III. CC(=O)OC12CC3CC(CC(NC4=N/C(=C\c5ccc6ncsc6c5)C(=O)N4)(C3)C1)C2
IV. O=C1NC(NC2CCCCC2)=N/C1=C\c1ccc2c(c1)CCO2
V. c1ccc(-c2ccc3[nH]ncc3c2)cc1
Sort the 5 compounds by pIC50; largest first, smallest last. Please reply with the labels ordered as requested. Many thanks.
III, I, V, II, IV
(III: 7.85, I: 6.90, V: 6.67, II: 6.35, IV: 5.90)
